Listed below: Bmax (MFI) values for each entry.
# systemName: T1, human ROR1 (hROR1) (human, UniProt Q01973 30-937)
# T1 construct: On HCT116-hROR1 transfectants, Mino cells or Ntera-2 cells, as the assay of each row says; also called receptor tyrosine kinase like orphan receptor 1
# assayInfo: flow cytometry, HCT116-hROR1 cells
I only need the number, in MFI, no unit after it.

Example results:
binder	Bmax (MFI)
SRP2196-B05 (antibody, V domains shown, His/FLAG-tagged IgG1) VH: EVQLVESGGGLVQPGGSLRLSCAASGFNITGYYIHWVRQAPGKGLEWVGQISPNSGATYHADSVKGRFTISADTSKNTAYLQMNSLRAEDTAVYYCARDSRRYVRGWDYWGQGTLVTVSS VL: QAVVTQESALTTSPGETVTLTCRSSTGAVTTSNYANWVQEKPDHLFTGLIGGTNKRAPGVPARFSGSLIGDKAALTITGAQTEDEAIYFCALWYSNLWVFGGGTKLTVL	14800
SRP2196-B10 (antibody, V domains shown, His/FLAG-tagged IgG1; also called Antibody 167) VH: EVQLVESGGGLVQPGGSLRLSCAASGFNITGYYIHWVRQAPGKGLEWVGSITPLSGATSKADSVKGRFTISADTSKNTAYLQMNSLRAEDTAVYYCARDSRRYIRSWDYWGQGTLVTVSS VL: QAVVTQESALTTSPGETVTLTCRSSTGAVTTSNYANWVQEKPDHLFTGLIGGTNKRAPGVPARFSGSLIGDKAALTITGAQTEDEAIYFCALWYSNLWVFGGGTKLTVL	14700

query: Using the record for SRP2196-C03 (antibody, V domains shown, His/FLAG-tagged IgG1) VH: EVQLVESGGGLVQPGGSLRLSCAASGFNITGYYIHWVRQAPGKGLEWVGQISPNSGSTYSADSVKGRFTISADTSKNTAYLQMSSLRAEDTAVYYCARDSRRYVLSWDYWGQGTLVTVSS VL: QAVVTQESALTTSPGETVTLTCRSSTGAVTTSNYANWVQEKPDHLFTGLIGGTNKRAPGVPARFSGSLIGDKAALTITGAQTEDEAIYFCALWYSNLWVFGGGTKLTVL , report its Bmax (MFI).
result: 15000

query: Using the record for SRP2196-C01 (antibody, V domains shown, His/FLAG-tagged IgG1) VH: EVQLVESGGGLVQPGGSLRLSCAASGFNIIGYYIHWVRQAPGKGLEWVGSITPLSGATSKADSVKGRFTISADTSKNTAYLQMNSLRAEDTAVYYCARDSRRYIRSWDYWGQGTLVTVSS VL: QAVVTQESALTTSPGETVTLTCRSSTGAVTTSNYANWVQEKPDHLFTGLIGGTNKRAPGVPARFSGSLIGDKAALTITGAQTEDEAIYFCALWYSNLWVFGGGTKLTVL , report its Bmax (MFI).
result: 15700

query: Using the record for SRP2196-B04 (antibody, V domains shown, His/FLAG-tagged IgG1) VH: EVQLVESGGGLVQPGGSLRLSCAASGFNITEYYIHWVRQAPGKGLEWVGYISPNSGATYQADSVKGRFTISADTSKNTAYLQMNSLRAEDTAVYYCARDSRRYVRGWDYWGQGTLVTVSS VL: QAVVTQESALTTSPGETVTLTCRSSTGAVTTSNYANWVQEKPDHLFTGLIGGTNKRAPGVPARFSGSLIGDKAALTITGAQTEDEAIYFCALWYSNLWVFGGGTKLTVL , report its Bmax (MFI).
result: 14400
